# measurement target: UniProtKB Q13535
# procedure details: Binding assay ATR (TR-FRET tracer displacement)
# condition context: tracer A, TR-FRET; read-out: ATR binding (tracer A) IC50
measured quantity: IC50 (nM)
Could you give me the number in nM? Just the number is fine.

// known answers, use as guide
CN(C)C(=O)c1ccc(-c2cc(N3CCOCC3)nc3c(-c4ccn[nH]4)nccc23)cc1 [Example 324] = 77.7
C[C@@H]1COCCN1c1cc(-c2ccc(N3CCCC3)cc2F)c2ccnc(-c3ccn[nH]3)c2n1 [Example 134] = 34.3
C[C@@H]1COCCN1c1cc(-c2ccn[nH]2)c2ccnc(-c3ccn[nH]3)c2n1 [Example 205] = 49.3
CC(C)Oc1cc(N2CCOCC2)nc2c(-c3cc[nH]c3)nccc12 [Example 68] = 589
C[C@@H]1COCCN1c1cc(-c2ccc(F)cc2N)c2ccnc(-c3ccn[nH]3)c2n1 [Example 131] = 23.1
COc1cccc(-c2cc(N3CCOCC3)nc3c(-c4ccn[nH]4)nccc23)c1F [Example 317] = 66.5

Item C[C@@H]1COCCN1c1cc(C2=CCSCC2)c2ccnc(-c3ccn[nH]3)c2n1 [Example 108] with UniProtKB Q13535 - IC50?
11.5

* * *

# measurement target: full-length human ATR protein (Homo sapiens (Human), UniProt Q13535)
# Sequence (Q13535 other isoform, or with tags, fused parts or gaps): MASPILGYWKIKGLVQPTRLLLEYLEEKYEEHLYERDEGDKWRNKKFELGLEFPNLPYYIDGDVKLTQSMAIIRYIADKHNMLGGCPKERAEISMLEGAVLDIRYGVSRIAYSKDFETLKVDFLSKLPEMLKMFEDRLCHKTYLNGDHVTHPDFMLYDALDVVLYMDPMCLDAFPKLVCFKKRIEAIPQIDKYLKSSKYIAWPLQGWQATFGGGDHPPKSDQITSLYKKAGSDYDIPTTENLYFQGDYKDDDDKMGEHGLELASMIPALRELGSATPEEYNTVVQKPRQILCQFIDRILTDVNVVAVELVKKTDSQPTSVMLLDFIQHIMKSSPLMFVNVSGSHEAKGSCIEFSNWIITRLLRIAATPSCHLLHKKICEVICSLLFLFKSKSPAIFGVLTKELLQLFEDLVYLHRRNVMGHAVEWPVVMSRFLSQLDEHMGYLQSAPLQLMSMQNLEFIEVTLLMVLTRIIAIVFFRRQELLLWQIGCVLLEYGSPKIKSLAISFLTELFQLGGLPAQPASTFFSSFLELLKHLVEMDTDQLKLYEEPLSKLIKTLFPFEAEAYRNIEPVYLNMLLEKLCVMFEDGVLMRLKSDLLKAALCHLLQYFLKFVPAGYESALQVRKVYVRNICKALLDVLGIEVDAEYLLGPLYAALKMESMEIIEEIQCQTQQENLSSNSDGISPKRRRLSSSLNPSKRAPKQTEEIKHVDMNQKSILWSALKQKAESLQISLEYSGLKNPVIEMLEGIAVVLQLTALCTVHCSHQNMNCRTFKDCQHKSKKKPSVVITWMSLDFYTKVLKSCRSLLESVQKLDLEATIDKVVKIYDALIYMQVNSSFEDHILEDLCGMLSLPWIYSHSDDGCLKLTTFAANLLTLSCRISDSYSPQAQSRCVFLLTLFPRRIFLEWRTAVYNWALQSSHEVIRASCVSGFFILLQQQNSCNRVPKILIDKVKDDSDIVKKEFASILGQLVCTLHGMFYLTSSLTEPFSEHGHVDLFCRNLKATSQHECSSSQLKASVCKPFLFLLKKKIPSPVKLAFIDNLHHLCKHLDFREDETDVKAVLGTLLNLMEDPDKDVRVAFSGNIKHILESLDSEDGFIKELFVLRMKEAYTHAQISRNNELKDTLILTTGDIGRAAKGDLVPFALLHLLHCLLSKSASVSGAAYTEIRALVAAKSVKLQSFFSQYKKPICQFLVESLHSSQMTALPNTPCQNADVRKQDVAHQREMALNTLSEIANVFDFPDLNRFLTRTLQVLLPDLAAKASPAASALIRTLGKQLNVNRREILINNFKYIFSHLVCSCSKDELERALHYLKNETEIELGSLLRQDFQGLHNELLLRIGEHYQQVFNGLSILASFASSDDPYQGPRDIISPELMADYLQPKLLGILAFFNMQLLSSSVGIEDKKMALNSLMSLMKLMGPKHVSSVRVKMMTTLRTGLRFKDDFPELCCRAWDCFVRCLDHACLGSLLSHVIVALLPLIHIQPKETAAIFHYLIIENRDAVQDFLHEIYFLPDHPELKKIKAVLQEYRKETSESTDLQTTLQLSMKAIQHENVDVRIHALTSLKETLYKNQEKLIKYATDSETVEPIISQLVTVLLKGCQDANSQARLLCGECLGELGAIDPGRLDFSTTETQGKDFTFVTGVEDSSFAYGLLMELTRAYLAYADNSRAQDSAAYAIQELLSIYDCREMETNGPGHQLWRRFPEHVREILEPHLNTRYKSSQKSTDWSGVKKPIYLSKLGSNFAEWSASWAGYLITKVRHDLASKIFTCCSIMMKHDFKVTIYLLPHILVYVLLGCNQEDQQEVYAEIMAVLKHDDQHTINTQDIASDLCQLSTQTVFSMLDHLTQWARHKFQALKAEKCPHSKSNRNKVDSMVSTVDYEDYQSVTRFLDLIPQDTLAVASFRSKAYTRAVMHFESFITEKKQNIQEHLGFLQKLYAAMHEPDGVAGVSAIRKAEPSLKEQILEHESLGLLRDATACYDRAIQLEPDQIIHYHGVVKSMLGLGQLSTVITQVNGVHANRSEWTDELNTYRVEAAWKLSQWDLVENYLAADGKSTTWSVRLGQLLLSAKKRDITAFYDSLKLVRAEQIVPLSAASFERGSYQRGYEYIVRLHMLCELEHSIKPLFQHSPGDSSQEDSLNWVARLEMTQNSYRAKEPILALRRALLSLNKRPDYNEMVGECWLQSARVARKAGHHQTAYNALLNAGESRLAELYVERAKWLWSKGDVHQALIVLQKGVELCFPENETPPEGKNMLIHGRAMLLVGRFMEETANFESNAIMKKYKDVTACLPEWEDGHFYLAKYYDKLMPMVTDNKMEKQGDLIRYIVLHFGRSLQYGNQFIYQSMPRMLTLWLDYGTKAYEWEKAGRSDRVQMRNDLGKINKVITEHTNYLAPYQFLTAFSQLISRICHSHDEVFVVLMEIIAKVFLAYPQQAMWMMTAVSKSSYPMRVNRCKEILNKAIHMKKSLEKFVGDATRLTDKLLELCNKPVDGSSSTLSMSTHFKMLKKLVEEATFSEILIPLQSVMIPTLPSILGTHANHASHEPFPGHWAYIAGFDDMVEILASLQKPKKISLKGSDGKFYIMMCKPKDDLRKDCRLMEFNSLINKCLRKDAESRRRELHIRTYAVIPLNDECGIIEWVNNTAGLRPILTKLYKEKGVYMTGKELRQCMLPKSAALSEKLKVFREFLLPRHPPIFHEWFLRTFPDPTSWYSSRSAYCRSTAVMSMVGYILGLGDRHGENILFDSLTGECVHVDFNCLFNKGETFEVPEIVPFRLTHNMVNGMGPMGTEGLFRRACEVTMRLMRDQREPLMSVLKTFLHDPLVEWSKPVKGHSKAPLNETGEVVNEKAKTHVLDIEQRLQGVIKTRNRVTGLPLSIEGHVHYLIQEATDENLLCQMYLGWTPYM
# Sequence (Q8WXE1 other isoform, or with tags, fused parts or gaps partner): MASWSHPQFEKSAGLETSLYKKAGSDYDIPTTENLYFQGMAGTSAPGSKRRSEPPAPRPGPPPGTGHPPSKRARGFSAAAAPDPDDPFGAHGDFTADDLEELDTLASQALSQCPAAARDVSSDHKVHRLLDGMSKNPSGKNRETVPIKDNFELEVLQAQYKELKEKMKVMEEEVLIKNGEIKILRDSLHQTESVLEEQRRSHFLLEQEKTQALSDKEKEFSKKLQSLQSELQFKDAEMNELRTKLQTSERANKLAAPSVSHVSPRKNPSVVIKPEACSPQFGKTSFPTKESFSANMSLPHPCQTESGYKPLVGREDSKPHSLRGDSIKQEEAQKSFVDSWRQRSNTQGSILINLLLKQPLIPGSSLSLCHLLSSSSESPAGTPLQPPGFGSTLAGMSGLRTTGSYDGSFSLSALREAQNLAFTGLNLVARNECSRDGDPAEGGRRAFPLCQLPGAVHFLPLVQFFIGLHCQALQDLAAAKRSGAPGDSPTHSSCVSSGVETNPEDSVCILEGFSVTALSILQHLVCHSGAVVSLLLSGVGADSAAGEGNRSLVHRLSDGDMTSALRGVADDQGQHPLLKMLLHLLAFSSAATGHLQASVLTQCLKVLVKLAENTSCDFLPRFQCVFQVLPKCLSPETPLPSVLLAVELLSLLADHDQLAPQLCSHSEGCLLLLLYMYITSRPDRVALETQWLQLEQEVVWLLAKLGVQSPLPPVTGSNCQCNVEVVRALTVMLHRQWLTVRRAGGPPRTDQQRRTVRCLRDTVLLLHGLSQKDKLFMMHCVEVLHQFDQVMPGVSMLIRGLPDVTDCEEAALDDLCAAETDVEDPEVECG
# procedure details: Binding assay ATR (TR-FRET tracer displacement)
# condition context: tracer A, TR-FRET; read-out: ATR binding (tracer A) IC50
measured quantity: IC50

Look over these answered cases.
O=C1OCCCN1c1cc(N2CCOCC2)nc2c(-c3ccn[nH]3)nccc12 [Example 225] = 447 nM
C[C@@H]1COCCN1c1cc(N=S(C)(=O)c2ccccc2F)c2ccnc(-c3ccn[nH]3)c2n1 (single isomer, unassigned) [Example 141] = 386 nM
Cc1ccc(-c2cc(N3CCOC[C@H]3C)nc3c(-c4ccn[nH]4)nccc23)s1 [Example 100] = 16.5 nM
CSc1cncc(-c2cc(N3CCOCC3)nc3c(-c4ccn[nH]4)nccc23)c1 [Example 400] = 300 nM
Cc1ccnc(F)c1-c1cc(N2CCOC[C@H]2C)nc2c(-c3ccn[nH]3)nccc12 [Example 90] = 10.6 nM

IC50 lookup needed for C[C@@H]1COCCN1c1cc(N=S(C)(=O)c2ccc(F)cc2)c2ccnc(-c3ccn[nH]3)c2n1 (stereo partly drawn) [Example 138] , thanks.
29 nM

* * *

Each item that follows carries a reported pIC50.
# measurement target: full-length human ATR protein (Homo sapiens (Human), UniProt Q13535)
# procedure details: Binding assay ATR (TR-FRET tracer displacement)
# condition context: tracer A, TR-FRET; read-out: ATR binding (tracer A) IC50
When answering, recall that pIC50 equals minus log10 of the concentration in mol/L, and write that number alone.

CS(C)(=O)=Nc1cc(N2CCOCC2)nc2c(-c3ccn[nH]3)nccc12 = 6.47
C[C@@H]1COCCN1c1cc(C2CCCN(C)C2)c2ccnc(-c3ccn[nH]3)c2n1 (some centres unmarked) = 6.80
CCOc1ccc(-c2cc(N3CCOCC3)nc3c(-c4ccn[nH]4)nccc23)cn1 = 6.70
C[C@@H]1COCCN1c1cc(-c2cccc(S(C)(=N)=O)c2)c2ccnc(-c3ccn[nH]3)c2n1 (some centres unmarked) = 7.06
C[C@@H]1COCCN1c1cc(N=S(C)(=O)c2ccc(Br)cc2)c2ccnc(-c3ccn[nH]3)c2n1 (some centres unmarked) = 7.11

For CCn1nc(C)cc1-c1cc(N2CCOC[C@H]2C)nc2c(-c3ccn[nH]3)nccc12 , what is its reported pIC50?
8.24

I have this compound here, NC(=O)c1ccc(-c2cc(N3CCOCC3)nc3c(-c4ccn[nH]4)nccc23)cc1 , and I need its recorded pIC50.
7.11

Consider the compound C[C@@H]1COCCN1c1cc(-c2ccccc2N(C)C)c2ccnc(-c3ccn[nH]3)c2n1 and give its measured pIC50.
7.71

Dear colleague, I am looking for the recorded pIC50 of the following compound: CCCCC(C)(O)c1cc(N2CCOC[C@H]2C)nc2c(-c3ccn[nH]3)nccc12 (some centres unmarked)
7.38

GET /values?readout=pIC50&item= C[C@@H]1COCCN1c1cc(-c2ccnn2C2CC2)c2ccnc(-c3ccn[nH]3)c2n1
7.92

Would you mind telling me what pIC50 value was observed for CC(C)(O)c1cc(N2CCOCC2)nc2c(-c3ccn[nH]3)nccc12 ?
6.69

Using the record for O=C1CCCCN1c1cc(N2CCOCC2)nc2c(-c3ccn[nH]3)nccc12 , report its pIC50.
6.10

pIC50 lookup needed for Nc1ncccc1-c1cc(N2CCOCC2)nc2c(-c3ccn[nH]3)nccc12 , thanks.
6.52

Consider the compound shown here: C[C@@H]1COCCN1c1cc(C2(O)CCCCC2)c2ccnc(-c3ccn[nH]3)c2n1 What is its recorded pIC50?
7.67

Query: pIC50; subject: CC1CCN(c2cc(N3CCOCC3)nc3c(-c4ccn[nH]4)nccc23)CC1
7.49

# get_value(readout='pIC50', item= CCOC(=O)N=S(C)(=O)c1ccc(-c2cc(N3CCOCC3)nc3c(-c4ccn[nH]4)nccc23)cc1 (centres unmarked) )
7.43
